Source of measurements: patent US8450313B2

target: full length human recombinant glucocorticoid receptor (Homo sapiens); construct: It contains some partially purified full length human recombinant glucocorticoid receptor; assay: Glucocorticoid Receptor Binding Assay (Glucocorticoid Receptor Competitor Assay far red kit, fluorescence polarization); settings: competition with fluorescent GR ligand Fluormone GS Far Red, 3 hours at 22° C., pH 7.4; Ki calculated from IC50 by Cheng-Prusoff
pKi: −log10 of the molar value.
Reported Endpoint: pKi

1) Cc1cc([C@@](O)([C@@H](C)c2ccc(Oc3ccc(C(=O)O)cn3)cc2Cl)C(F)(F)F)cc(C)c1C#N (stereo in doubt) | 8.80

(A) COC(=O)c1ccc(-c2ccc([C@@H](C)[C@@](O)(c3ccc4oc(=O)n(C)c4c3)C(F)(F)F)c(Cl)c2)cc1F (relative stereo)
(B) C[C@H](c1ccc(Oc2cc(Cl)ncc2C(=O)O)cc1Cl)[C@@](O)(c1ccc2c(c1)n(C)c(=O)n2C)C(F)(F)F (stereo in doubt)
IN: I'd appreciate it if you could identify which of A and B has the greater pKi. Returns: label corresponding to the selected item.
OUT: A
(A: 8.66, B: 7.98)

* * *

target: full length human recombinant glucocorticoid receptor (Homo sapiens); construct: It contains some partially purified full length human recombinant glucocorticoid receptor; experiment: Glucocorticoid Receptor Binding Assay (Glucocorticoid Receptor Competitor Assay far red kit, fluorescence polarization); conditions: competition with fluorescent GR ligand Fluormone GS Far Red, 3 hours at 22° C., pH 7.4; Ki calculated from IC50 by Cheng-Prusoff
Reported Endpoint: Ki (nM)

1. C[C@@H](c1ccc(Oc2ccc(C(=O)O)cn2)cc1Cl)[C@](O)(c1ccc2c(c1)n(C)c(=O)n2C)C(F)(F)F (stereo in doubt) [Example 101] | 1.1
2. C[C@@H](c1ccc(Oc2ccc(C(=O)O)c(Cl)n2)cc1Cl)[C@](O)(c1ccc2c(c1)N(C)S(=O)(=O)N2C)C(F)(F)F (relative stereo) [Example 159] | 2.1
3. C[C@H](c1ccc(Oc2ncccc2C(=O)O)cc1Cl)[C@@](O)(c1ccc2c(c1)n(C)c(=O)n2C)C(F)(F)F (stereo in doubt) [Example 105] | 14.8
4. Cc1cc([C@@](O)([C@@H](C)c2ccc(Oc3ccc(C(=O)O)c(F)c3)cc2Cl)C(F)(F)F)cc(C)c1C#N (stereo in doubt) [Example 142] | 2.1

(a) C[C@H](c1ccc(OC(C)(C)C(=O)O)cc1Cl)[C@@](O)(c1ccc2c(c1)N(C)C(=O)CO2)C(F)(F)F (stereo in doubt) [Example 207]
(b) C[C@H](c1ccc(-c2ccc(C(=O)O)c(F)c2)cc1Cl)[C@@](O)(c1ccc2oc(=O)n(C)c2c1)C(F)(F)F (racemic) [Example 118]
IN: I'd appreciate it if you could identify which of a and b has the greater Ki. Returns: label corresponding to the selected item.
OUT: a
(a: 370 nM, b: 1 nM)

* * *

biological target: full length human recombinant glucocorticoid receptor (Homo sapiens); construct: It contains some partially purified full length human recombinant glucocorticoid receptor; experiment: Glucocorticoid Receptor Binding Assay (Glucocorticoid Receptor Competitor Assay far red kit, fluorescence polarization); conditions: competition with fluorescent GR ligand Fluormone GS Far Red, 3 hours at 22° C., pH 7.4; Ki calculated from IC50 by Cheng-Prusoff
Reported Endpoint: Ki (nM)

1. C[C@H](c1ccc(Oc2ccc(C(=O)O)c(C(F)(F)F)c2)cc1Cl)[C@@](O)(c1ccc2c(c1)N(C)C(=O)CO2)C(F)(F)F (racemic) | 1.1

(a) C[C@H](c1ccc(Oc2cc(C(F)(F)F)c(C(=O)O)cn2)cc1Cl)[C@@](O)(c1ccc2c(c1)N(C)C(=O)CO2)C(F)(F)F
(b) C[C@H](c1ccc(Oc2ccc(C(=O)O)c(Cl)n2)cc1Cl)[C@@](O)(c1ccc2c(c1)N(C)C(=O)CO2)C(F)(F)F (stereo in doubt) [Example 209]
IN: # query: argmin of Ki over a and b Returns: label corresponding to the selected item.
OUT: b
(b: 0.8 nM, a: 2.1 nM)

* * *

biological target: full length human recombinant glucocorticoid receptor (Homo sapiens); construct: It contains some partially purified full length human recombinant glucocorticoid receptor; purchased Panvera/Invitrogen PV4302; experiment: Glucocorticoid Receptor Binding Assay (Glucocorticoid Receptor Competitor Assay far red kit, fluorescence polarization); settings: competition with fluorescent GR ligand Fluormone GS Far Red, 3 hours at 22° C., pH 7.4; Ki calculated from IC50 by Cheng-Prusoff
Reported Endpoint: Ki (nM)

Please review the following examples before continuing.
1) CC(c1ccc(-c2ccc(C(=O)O)c(F)c2)cc1Cl)C(O)(c1ccc2c(c1)n(C)c(=O)n2C)C(F)(F)F (stereo not drawn) [Example 73] | 7.3
2) COC(=O)c1ccc(-c2ccc([C@@H](C)[C@@](O)(c3ccc4oc(=O)n(C)c4c3)C(F)(F)F)c(Cl)c2)cc1Cl (relative stereo) [Example 123] | 1.1
3) CCN1C(=O)COc2ccc([C@](O)([C@H](C)c3ccc(-c4ccc(F)c(C(=O)O)c4)cc3Cl)C(F)(F)F)cc21 (relative stereo) [Example 67] | 40.2

(A) C=CCN1C(=O)COc2ccc([C@](O)([C@H](C)c3ccc(-c4ccc(C(=O)OC)c(F)c4)cc3Cl)C(F)(F)F)cc21 (stereo in doubt) [Example 70]
(B) C[C@H](c1ccc(Oc2ncc(C(=O)O)cc2Cl)cc1Cl)[C@@](O)(c1ccc2c(c1)N(C)C(=O)CO2)C(F)(F)F (racemic) [Example 213]
(C) C[C@@H](c1ccc(Oc2ncc(C(=O)O)cc2Cl)cc1Cl)[C@](O)(c1ccc2c(c1)N(C)C(=O)CO2)C(F)(F)F [Example 224]
IN: Task field, ranking: reported Ki, descending order. Response field: labels, in requested order.
OUT: A, B, C
(A: 278 nM, B: 1.7 nM, C: 0.8 nM)

* * *

Molecular target: full length human recombinant glucocorticoid receptor (Homo sapiens)
Construct: It contains some partially purified full length human recombinant glucocorticoid receptor
Sequence (P04150 1-777): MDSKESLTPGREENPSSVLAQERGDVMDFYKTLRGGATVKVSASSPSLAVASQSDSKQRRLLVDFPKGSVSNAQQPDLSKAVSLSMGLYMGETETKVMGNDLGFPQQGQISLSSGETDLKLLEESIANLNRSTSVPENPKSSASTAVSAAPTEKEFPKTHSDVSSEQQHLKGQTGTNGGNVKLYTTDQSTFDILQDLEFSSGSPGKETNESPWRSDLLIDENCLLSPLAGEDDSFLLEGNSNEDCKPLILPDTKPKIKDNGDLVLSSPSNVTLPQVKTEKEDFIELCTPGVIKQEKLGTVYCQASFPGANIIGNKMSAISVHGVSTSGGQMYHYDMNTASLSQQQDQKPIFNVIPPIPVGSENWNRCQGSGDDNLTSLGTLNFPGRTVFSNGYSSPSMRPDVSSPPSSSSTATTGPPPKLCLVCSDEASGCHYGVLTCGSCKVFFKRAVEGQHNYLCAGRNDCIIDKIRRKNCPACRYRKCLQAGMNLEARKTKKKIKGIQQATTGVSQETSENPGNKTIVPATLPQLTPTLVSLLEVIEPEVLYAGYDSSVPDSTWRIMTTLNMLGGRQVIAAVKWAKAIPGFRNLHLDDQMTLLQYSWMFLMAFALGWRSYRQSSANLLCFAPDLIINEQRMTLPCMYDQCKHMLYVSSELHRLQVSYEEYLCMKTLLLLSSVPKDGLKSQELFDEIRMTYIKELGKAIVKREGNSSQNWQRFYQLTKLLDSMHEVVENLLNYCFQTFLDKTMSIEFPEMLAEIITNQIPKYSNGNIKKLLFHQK
Assay: Glucocorticoid Receptor Binding Assay (Glucocorticoid Receptor Competitor Assay far red kit, fluorescence polarization)
Details: competition with fluorescent GR ligand Fluormone GS Far Red, 3 hours at 22° C., pH 7.4; Ki calculated from IC50 by Cheng-Prusoff
Reported Endpoint: Ki (µM)

1) C[C@@H](c1cc(Oc2ccc(C(=O)O)cc2)ccc1Cl)[C@](O)(c1ccc2c(c1)N(C)C(=O)CO2)C(F)(F)F (relative stereo) [Example 8] | 0.0108

(1) C[C@H](c1ccc(Oc2ncc(C(=O)O)cc2Cl)cc1Cl)[C@@](O)(c1ccc2c(c1)n(C)c(=O)n2C)C(F)(F)F (stereo in doubt) [Example 107]
(2) COC(=O)c1ccc(Oc2ccc(Cl)c([C@H](C)[C@](O)(c3ccc4c(c3)N(C)C(=O)CO4)C(F)(F)F)c2)cc1 (relative stereo) [Example 7]
IN: # query: argmin of Ki over 1 and 2 Returns: label corresponding to the selected item.
OUT: 1

* * *

target: full length human recombinant glucocorticoid receptor (Homo sapiens, UniProt P04150); construct: It contains some partially purified full length human recombinant glucocorticoid receptor; assay: Glucocorticoid Receptor Binding Assay (Glucocorticoid Receptor Competitor Assay far red kit, fluorescence polarization); conditions: competition with fluorescent GR ligand Fluormone GS Far Red, 3 hours at 22° C., pH 7.4; Ki calculated from IC50 by Cheng-Prusoff
Reported Endpoint: Ki (nM)

1) COC(=O)c1cnc(Oc2ccc([C@@H](C)[C@@](O)(c3ccc4oc(=O)n(C)c4c3)C(F)(F)F)c(Cl)c2)nc1 (relative stereo) | 1.8

(P) COC(=O)c1ccc(-c2ccc([C@H](C)[C@](O)(c3cc(F)c4c(c3)N(C)C(=O)CO4)C(F)(F)F)c(Cl)c2)cc1F (relative stereo)
(Q) COc1cc(Oc2ccc([C@@H](C)[C@@](O)(c3ccc4c(c3)n(C)c(=O)n4C)C(F)(F)F)c(Cl)c2)ccc1C(=O)O (relative stereo)
IN: I'd appreciate it if you could identify which of P and Q has the greater Ki. Returns: label corresponding to the selected item.
OUT: Q
(Q: 5 nM, P: 2.1 nM)
